The reported measurements were obtained from patent US20230263822A1.

Exercise: for every item that follows, state its recorded hemoglobin.
Details: rat, in vivo, sc, 50 mg/kg
e = 2'-O-(2-methoxyethyl) (MOE); d = 2'-deoxy (DNA)
Answers are plain numbers, in g/dL.

Worked cases, hemoglobin given:
substance	unit.tag	hemoglobin
ISIS 416863: MOE gapmer, nucleobases 1275 to 1318 of SEQ ID NO: 1 (Table 8) (antisense CAGCGGACGGCATTGGTGCA; MOE gapmer, wing and gap sizes not given here)	g/dL	14.1
ISIS 413481: 5-10-5 MOE gapmer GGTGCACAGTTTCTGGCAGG (sugars from the 5' end e5 d10 e5, backbone and methylation of C not given here)	g/dL	14.2
ISIS 412224: 5-10-5 MOE gapmer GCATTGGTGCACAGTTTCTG (sugars from the 5' end e5 d10 e5, backbone and methylation of C not given here)	g/dL	13.4
ISIS 416859: MOE gapmer, nucleobases 1275 to 1318 of SEQ ID NO: 1 (Table 8) (antisense GACGGCATTGGTGCACAGTT; MOE gapmer, wing and gap sizes not given here)	g/dL	14.0

Tell us which hemoglobin value is on record for ISIS 416861: MOE gapmer, nucleobases 1275 to 1318 of SEQ ID NO: 1 (Table 8) (antisense GCGGACGGCATTGGTGCACA; MOE gapmer, wing and gap sizes not given here) 14.6

* * *

Conditions: rat, in vivo, sc, 50 mg/kg
e = 2'-O-(2-methoxyethyl) (MOE); d = 2'-deoxy (DNA)
Exercise: state measured WBC for each of the substances provided.
Answers are plain numbers, in nL⁻¹.

The examples below pair each entry with its known result.
substance	reported.measurement
ISIS 445513: 5-8-5 or 6-8-6 MOE microwalk gapmer (Table 44) (antisense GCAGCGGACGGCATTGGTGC; sugars from the 5' end e6 d8 e6, backbone and methylation of C not given here)	17
ISIS 445505: 5-8-5 or 6-8-6 MOE microwalk gapmer (Table 44) (antisense CGGCATTGGTGCACAGTTTC; sugars from the 5' end e6 d8 e6, backbone and methylation of C not given here)	21
ISIS 445530: 5-8-5 or 6-8-6 MOE microwalk gapmer (Table 44) (antisense GCATTGGTGCACAGTTTC; sugars from the 5' end e5 d8 e5, backbone and methylation of C not given here)	12
ISIS 445509: 5-8-5 or 6-8-6 MOE microwalk gapmer (Table 44) (antisense CGGACGGCATTGGTGCACAG; sugars from the 5' end e6 d8 e6, backbone and methylation of C not given here)	17
ISIS 445498: 5-8-5 or 6-8-6 MOE microwalk gapmer (Table 44) (antisense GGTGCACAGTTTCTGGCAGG; sugars from the 5' end e6 d8 e6, backbone and methylation of C not given here)	13

Answer with the recorded WBC of ISIS 445504: 5-8-5 or 6-8-6 MOE microwalk gapmer (Table 44) (antisense GGCATTGGTGCACAGTTTCT; sugars from the 5' end e6 d8 e6, backbone and methylation of C not given here) only. 16

* * *

Tested on: human Factor 11 mRNA
Assay: Dose-dependent inhibition of human Factor 11 in HepG2 cells, electroporation 0.7-20 uM (Example 4)
Format: cell-based
Conditions: 20 μM, relative to untreated control cells
Strand notation (5' to 3'): a small letter for the sugar, then the base; units joined by * are phosphorothioate-linked, units joined directly phosphodiester-linked; [ ] holds rarer units or linkages, { } end groups; capitals alone tell only the bases. e = 2'-O-(2-methoxyethyl) (MOE); [5mC] = 5-methylcytosine; d = 2'-deoxy (DNA)
recorded.metric: percent inhibition of Factor 11 at 20 μM (%)
Give bare numbers, in %.

// known answers, use as guide
substance	percent inhibition of Factor 11 at 20 μM (%)
416858 (antisense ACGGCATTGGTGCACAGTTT; 5-10-5 gapmer, further chemistry not given here) [compound 416858]	86
416945 (antisense eA*eA*dT*dG*dT*d[5mC]*dT*dT*dT*dG*dT*dT*dG*d[5mC]*dA*eA*eG*e[5mC]*eG*e[5mC]) [compound 416945]	88
416931 (antisense eG*eG*e[5mC]*dA*dT*dT*dG*dG*dT*dG*d[5mC]*dA*d[5mC]*dA*dG*dT*dT*eT*e[5mC]*eT) [compound 416931]	82
416924 (antisense eG*eT*eG*d[5mC]*dA*d[5mC]*dA*dG*dT*dT*dT*d[5mC]*dT*dG*dG*d[5mC]*dA*eG*eG*e[5mC]) [compound 416924]	70
416864 (antisense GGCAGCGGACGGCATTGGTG; 5-10-5 gapmer, further chemistry not given here) [compound 416864]	90

Hi, could you look up percent inhibition of Factor 11 at 20 μM for each item in my list?
1. 416923 (antisense eT*eG*e[5mC]*dA*d[5mC]*dA*dG*dT*dT*dT*d[5mC]*dT*dG*dG*d[5mC]*dA*dG*eG*e[5mC]*e[5mC]) [compound 416923]
2. 416825 (antisense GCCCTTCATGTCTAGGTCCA; 5-10-5 gapmer, further chemistry not given here) [compound 416825]

[90, 98]

* * *

I'd appreciate it if you could supply WBC values for the items below.
Conditions: rat, in vivo, sc, 50 mg/kg
e = 2'-O-(2-methoxyethyl) (MOE); d = 2'-deoxy (DNA)

Recorded WBC, per entry:
substance	WBC
ISIS 416860: MOE gapmer, nucleobases 1275 to 1318 of SEQ ID NO: 1 (Table 8) (antisense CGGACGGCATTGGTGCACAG; MOE gapmer, wing and gap sizes not given here)	17 10^3/μL
ISIS 413482: 5-10-5 MOE gapmer GGACGGCATTGGTGCACAGT (sugars from the 5' end e5 d10 e5, backbone and methylation of C not given here)	13 10^3/μL

Switching to the query record.
Look up and state reported WBC for ISIS 416866: MOE gapmer, nucleobases 1275 to 1318 of SEQ ID NO: 1 (Table 8) (antisense CTGGCAGCGGACGGCATTGG; MOE gapmer, wing and gap sizes not given here) 20 10^3/μL

* * *

Assay: Liver function, ALT, AST, bilirubin in cynomolgus monkeys (Example 46)
Assay type: in vivo
Details: Day −14; plasma
Method: Groups, each consisting of two male and two female monkeys, were injected subcutaneously with 25 mg/kg of ISIS 416850, ISIS 449709, ISIS 445522, ISIS 449710, ISIS 449707, ISIS 449711, ISIS 449708, 416858, and ISIS 445531. […] Body weights were taken 14 days and 7 days before the start of treatment and were then measured weekly throughout the treatment period. […]
Strand notation (5' to 3'): a small letter for the sugar, then the base; units joined by * are phosphorothioate-linked, units joined directly phosphodiester-linked; [ ] holds rarer units or linkages, { } end groups; capitals alone tell only the bases. e = 2'-O-(2-methoxyethyl) (MOE); [5mC] = 5-methylcytosine; d = 2'-deoxy (DNA)
recorded.metric: AST
Form entry: enter the amount, then its unit.

substance	AST
ISIS 449711: 3-8-3, 4-8-4, 2-10-2, 3-10-3 or 4-10-4 MOE microwalk gapmer (Table 46) (antisense eA*e[5mC]*dA*dG*dT*dT*dT*d[5mC]*dT*dG*dG*d[5mC]*eA*eG)	58 IU/L

With those in mind, consider the next substance.
Provide only the value of recorded AST for ISIS 449710: 3-8-3, 4-8-4, 2-10-2, 3-10-3 or 4-10-4 MOE microwalk gapmer (Table 46) (antisense e[5mC]*eA*e[5mC]*dA*dG*dT*dT*dT*d[5mC]*dT*dG*dG*d[5mC]*eA*eG*eG) 52 IU/L

* * *

Could you please report measured percent inhibition of human Factor 11 mRNA relative to untreated control cells for the items listed next?
Tested on: human Factor 11 mRNA
Test: Dose-dependent inhibition of human Factor 11 in HepB3 cells, electroporation (Example 7)
Format: cell-based
Conditions: 1111.11 nM, ~16 hours

Sample answers from the record:
substance	reported.measurement
416925 (antisense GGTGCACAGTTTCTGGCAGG; 3-14-3 gapmer chemistry, further chemistry not given here) [compound 416925]	73%
417002 (antisense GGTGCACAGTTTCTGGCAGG; 2-13-5 gapmer chemistry, further chemistry not given here) [compound 417002]	47%

Hi team, please reply with percent inhibition of human Factor 11 mRNA relative to untreated control cells for each item in this list.
1. 416838 (antisense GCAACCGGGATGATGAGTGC; 5-10-5 gapmer, further chemistry not given here) [compound 416838]
2. 416825 (antisense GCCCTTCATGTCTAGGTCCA; 5-10-5 gapmer, further chemistry not given here) [compound 416825]
3. 416864 (antisense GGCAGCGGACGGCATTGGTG; 5-10-5 gapmer, further chemistry not given here) [compound 416864]
4. 416892 (antisense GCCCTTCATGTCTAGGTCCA; 3-14-3 chimeric gapmer, further chemistry not given here) [compound 416892]

["40%", "75%", "35%", "65%"]

Hey, can you go through the list below and give me percent inhibition of human Factor 11 mRNA relative to untreated control cells for every item?
1. 417003 (antisense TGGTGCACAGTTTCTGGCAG; 2-13-5 gapmer chemistry, further chemistry not given here) [compound 417003]
2. 416850 (antisense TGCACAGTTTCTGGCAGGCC; 5-10-5 gapmer, further chemistry not given here) [compound 416850]

1: 43%; 2: 73%
